// relative viability lookup, one value per entry
Tested on: NCI-H1792
Test: relative viability (nuclei count vs DMSO), 5 days (fraction); higher = more cells survive
Conditions: first compound 0.4 µM
TEST READOUT: relative viability

INSERT INTO assay_data (compound, target_or_system, quantitative_readout) VALUES
  ('COc1cc(N2CCC(C(N)=O)CC2)ccc1Nc1nc(N)c(Cl)c(Nc2ccccc2S(=O)(=O)C(C)C)n1 [HG-5-88-01] + CC(=O)Nc1cccc(-n2c(=O)n(C3CC3)c(=O)c3c(Nc4ccc(I)cc4F)n(C)c(=O)c(C)c32)c1 [Trametinib] (partner 0.02 µM)', 'NCI-H1792', 0.401),
  ('C[C@@H]1CN(CC(=O)Nc2ccc3c(c2)Cc2cccc(-c4cc(=O)cc(N5CCOCC5)o4)c2S3)C[C@H](C)O1 + CC(C)C[C@H](NC(=O)[C@H](Cc1ccccc1)NC(=O)c1cnccn1)B(O)O [Bortezomib] (partner 0.002 µM)', 'NCI-H1792', 0.924),
  ('Clc1ccc(Nc2nnc(Cc3ccncc3)c3ccccc23)cc1 [Vatalanib] + Nc1nc2[nH]cc(CCc3ccc(C(=O)N[C@@H](CCC(=O)O)C(=O)O)cc3)c2c(=O)[nH]1 [Pemetrexed] (partner 0.2 µM)', 'NCI-H1792', 0.771),
  ('C[C@@H]1CN(CC(=O)Nc2ccc3c(c2)Cc2cccc(-c4cc(=O)cc(N5CCOCC5)o4)c2S3)C[C@H](C)O1 + Cc1nc(Nc2ncc(C(=O)Nc3c(C)cccc3Cl)s2)cc(N2CCN(CCO)CC2)n1 [Dasatinib] (partner 0.075 µM)', 'NCI-H1792', 0.788),
  ('Clc1ccc(Nc2nnc(Cc3ccncc3)c3ccccc23)cc1 [Vatalanib] + COc1cccc2cc(-c3nc([C@H]4CC[C@H](C(=O)O)CC4)n4ncnc(N)c34)[nH]c12 [OSI-027] (partner 0.5 µM)', 'NCI-H1792', 0.704),
  ('C[C@@H]1CN(CC(=O)Nc2ccc3c(c2)Cc2cccc(-c4cc(=O)cc(N5CCOCC5)o4)c2S3)C[C@H](C)O1 + CC(=O)c1c(C)c2cnc(Nc3ccc(N4CCNCC4)cn3)nc2n(C2CCCC2)c1=O [Palbociclib] (partner 0.5 µM)', 'NCI-H1792', 0.658),
  ('COc1cc(N2CCC(C(N)=O)CC2)ccc1Nc1nc(N)c(Cl)c(Nc2ccccc2S(=O)(=O)C(C)C)n1 [HG-5-88-01] + Cc1nc(NC(=O)N2CCC[C@H]2C(N)=O)sc1-c1ccnc(C(C)(C)C(F)(F)F)c1 [Alpelisib] (partner 2 µM)', 'NCI-H1792', 0.654),
  ('C[C@@H]1CN(CC(=O)Nc2ccc3c(c2)Cc2cccc(-c4cc(=O)cc(N5CCOCC5)o4)c2S3)C[C@H](C)O1 + Nc1ncn([C@H]2C[C@H](O)[C@@H](CO)O2)c(=O)n1 [Decitabine] (partner 2 µM)', 'NCI-H1792', 0.542),
  ('Clc1ccc(Nc2nnc(Cc3ccncc3)c3ccccc23)cc1 [Vatalanib] + CC(=O)Nc1cccc(-n2c(=O)n(C3CC3)c(=O)c3c(Nc4ccc(I)cc4F)n(C)c(=O)c(C)c32)c1 [Trametinib] (partner 0.02 µM)', 'NCI-H1792', 0.394),
  ('COc1cc(N2CCC(C(N)=O)CC2)ccc1Nc1nc(N)c(Cl)c(Nc2ccccc2S(=O)(=O)C(C)C)n1 [HG-5-88-01] + Nc1nc2[nH]cc(CCc3ccc(C(=O)N[C@@H](CCC(=O)O)C(=O)O)cc3)c2c(=O)[nH]1 [Pemetrexed] (partner 0.2 µM)', 'NCI-H1792', 0.751),
  ('C[C@@H]1CN(CC(=O)Nc2ccc3c(c2)Cc2cccc(-c4cc(=O)cc(N5CCOCC5)o4)c2S3)C[C@H](C)O1 + O=C(c1cc(Cc2n[nH]c(=O)c3ccccc23)ccc1F)N1CCN(C(=O)C2CC2)CC1 [Olaparib] (partner 8 µM)', 'NCI-H1792', 0.315),
  ('Clc1ccc(Nc2nnc(Cc3ccncc3)c3ccccc23)cc1 [Vatalanib] + Cc1nc(Nc2ncc(C(=O)Nc3c(C)cccc3Cl)s2)cc(N2CCN(CCO)CC2)n1 [Dasatinib] (partner 0.075 µM)', 'NCI-H1792', 0.758),
  ('COc1cc(N2CCC(C(N)=O)CC2)ccc1Nc1nc(N)c(Cl)c(Nc2ccccc2S(=O)(=O)C(C)C)n1 [HG-5-88-01] + CS(=O)(=O)CCNCc1ccc(-c2ccc3ncnc(Nc4ccc(OCc5cccc(F)c5)c(Cl)c4)c3c2)o1 [Lapatinib] (partner 2 µM)', 'NCI-H1792', 0.864),
  ('COc1cc(N2CCC(C(N)=O)CC2)ccc1Nc1nc(N)c(Cl)c(Nc2ccccc2S(=O)(=O)C(C)C)n1 [HG-5-88-01] + Nc1ncn([C@H]2C[C@H](O)[C@@H](CO)O2)c(=O)n1 [Decitabine] (partner 2 µM)', 'NCI-H1792', 0.579),
  ('C[C@@H]1CN(CC(=O)Nc2ccc3c(c2)Cc2cccc(-c4cc(=O)cc(N5CCOCC5)o4)c2S3)C[C@H](C)O1 + COc1cccc2cc(-c3nc([C@H]4CC[C@H](C(=O)O)CC4)n4ncnc(N)c34)[nH]c12 [OSI-027] (partner 0.5 µM)', 'NCI-H1792', 0.633);

====

Tested on: NCI-H1755
Experiment: relative viability (nuclei count vs DMSO), 5 days (fraction); higher = more cells survive
Details: first compound 4 µM
// relative viability lookup, one value per entry
TEST READOUT: relative viability

INSERT INTO assay_data (compound, target_or_system, test_readout, result) VALUES
  ('C[C@@H]1CN(CC(=O)Nc2ccc3c(c2)Cc2cccc(-c4cc(=O)cc(N5CCOCC5)o4)c2S3)C[C@H](C)O1 + C[C@@H](Oc1cc(-c2cnn(C3CCNCC3)c2)cnc1N)c1c(Cl)ccc(F)c1Cl [Crizotinib] (partner 1 µM)', 'NCI-H1755', 'relative viability', 0.792),
  ('C[C@@H]1CN(CC(=O)Nc2ccc3c(c2)Cc2cccc(-c4cc(=O)cc(N5CCOCC5)o4)c2S3)C[C@H](C)O1 + O=C(c1cc(Cc2n[nH]c(=O)c3ccccc23)ccc1F)N1CCN(C(=O)C2CC2)CC1 [Olaparib] (partner 8 µM)', 'NCI-H1755', 'relative viability', 0.958),
  ('Clc1ccc(Nc2nnc(Cc3ccncc3)c3ccccc23)cc1 [Vatalanib] + CC(=O)Nc1cccc(-n2c(=O)n(C3CC3)c(=O)c3c(Nc4ccc(I)cc4F)n(C)c(=O)c(C)c32)c1 [Trametinib] (partner 0.02 µM)', 'NCI-H1755', 'relative viability', 0.717),
  ('COc1cc(N2CCC(C(N)=O)CC2)ccc1Nc1nc(N)c(Cl)c(Nc2ccccc2S(=O)(=O)C(C)C)n1 [HG-5-88-01] + COc1cccc2cc(-c3nc([C@H]4CC[C@H](C(=O)O)CC4)n4ncnc(N)c34)[nH]c12 [OSI-027] (partner 0.5 µM)', 'NCI-H1755', 'relative viability', 0.434),
  ('Clc1ccc(Nc2nnc(Cc3ccncc3)c3ccccc23)cc1 [Vatalanib] + C[C@]1(O)C[C@@H](c2nc(-c3ccc4ccc(-c5ccccc5)nc4c3)c3c(N)nccn32)C1 [Linsitinib] (partner 1 µM)', 'NCI-H1755', 'relative viability', 0.919),
  ('C[C@@H]1CN(CC(=O)Nc2ccc3c(c2)Cc2cccc(-c4cc(=O)cc(N5CCOCC5)o4)c2S3)C[C@H](C)O1 + CS(=O)(=O)CCNCc1ccc(-c2ccc3ncnc(Nc4ccc(OCc5cccc(F)c5)c(Cl)c4)c3c2)o1 [Lapatinib] (partner 2 µM)', 'NCI-H1755', 'relative viability', 0.932),
  ('C[C@@H]1CN(CC(=O)Nc2ccc3c(c2)Cc2cccc(-c4cc(=O)cc(N5CCOCC5)o4)c2S3)C[C@H](C)O1 + NC(=O)Nc1cc(-c2cccc(F)c2)sc1C(=O)N[C@H]1CCCNC1 [AZD7762] (partner 0.2 µM)', 'NCI-H1755', 'relative viability', 0.445),
  ('C[C@@H]1CN(CC(=O)Nc2ccc3c(c2)Cc2cccc(-c4cc(=O)cc(N5CCOCC5)o4)c2S3)C[C@H](C)O1 + C[C@]1(O)C[C@@H](c2nc(-c3ccc4ccc(-c5ccccc5)nc4c3)c3c(N)nccn32)C1 [Linsitinib] (partner 1 µM)', 'NCI-H1755', 'relative viability', 0.941),
  ('COc1cc(N2CCC(C(N)=O)CC2)ccc1Nc1nc(N)c(Cl)c(Nc2ccccc2S(=O)(=O)C(C)C)n1 [HG-5-88-01] + N=C(N)NC(=N)NCCc1ccccc1 [Phenformin] (partner 250 µM)', 'NCI-H1755', 'relative viability', 0.521),
  ('Clc1ccc(Nc2nnc(Cc3ccncc3)c3ccccc23)cc1 [Vatalanib] + CCNC(=O)c1noc(-c2cc(C(C)C)c(O)cc2O)c1-c1ccc(CN2CCOCC2)cc1 [Luminespib] (partner 0.01 µM)', 'NCI-H1755', 'relative viability', 0.453);
